# targetSystem: UniProt Q9NY46
# Sequence (Q9NY46 whole entry): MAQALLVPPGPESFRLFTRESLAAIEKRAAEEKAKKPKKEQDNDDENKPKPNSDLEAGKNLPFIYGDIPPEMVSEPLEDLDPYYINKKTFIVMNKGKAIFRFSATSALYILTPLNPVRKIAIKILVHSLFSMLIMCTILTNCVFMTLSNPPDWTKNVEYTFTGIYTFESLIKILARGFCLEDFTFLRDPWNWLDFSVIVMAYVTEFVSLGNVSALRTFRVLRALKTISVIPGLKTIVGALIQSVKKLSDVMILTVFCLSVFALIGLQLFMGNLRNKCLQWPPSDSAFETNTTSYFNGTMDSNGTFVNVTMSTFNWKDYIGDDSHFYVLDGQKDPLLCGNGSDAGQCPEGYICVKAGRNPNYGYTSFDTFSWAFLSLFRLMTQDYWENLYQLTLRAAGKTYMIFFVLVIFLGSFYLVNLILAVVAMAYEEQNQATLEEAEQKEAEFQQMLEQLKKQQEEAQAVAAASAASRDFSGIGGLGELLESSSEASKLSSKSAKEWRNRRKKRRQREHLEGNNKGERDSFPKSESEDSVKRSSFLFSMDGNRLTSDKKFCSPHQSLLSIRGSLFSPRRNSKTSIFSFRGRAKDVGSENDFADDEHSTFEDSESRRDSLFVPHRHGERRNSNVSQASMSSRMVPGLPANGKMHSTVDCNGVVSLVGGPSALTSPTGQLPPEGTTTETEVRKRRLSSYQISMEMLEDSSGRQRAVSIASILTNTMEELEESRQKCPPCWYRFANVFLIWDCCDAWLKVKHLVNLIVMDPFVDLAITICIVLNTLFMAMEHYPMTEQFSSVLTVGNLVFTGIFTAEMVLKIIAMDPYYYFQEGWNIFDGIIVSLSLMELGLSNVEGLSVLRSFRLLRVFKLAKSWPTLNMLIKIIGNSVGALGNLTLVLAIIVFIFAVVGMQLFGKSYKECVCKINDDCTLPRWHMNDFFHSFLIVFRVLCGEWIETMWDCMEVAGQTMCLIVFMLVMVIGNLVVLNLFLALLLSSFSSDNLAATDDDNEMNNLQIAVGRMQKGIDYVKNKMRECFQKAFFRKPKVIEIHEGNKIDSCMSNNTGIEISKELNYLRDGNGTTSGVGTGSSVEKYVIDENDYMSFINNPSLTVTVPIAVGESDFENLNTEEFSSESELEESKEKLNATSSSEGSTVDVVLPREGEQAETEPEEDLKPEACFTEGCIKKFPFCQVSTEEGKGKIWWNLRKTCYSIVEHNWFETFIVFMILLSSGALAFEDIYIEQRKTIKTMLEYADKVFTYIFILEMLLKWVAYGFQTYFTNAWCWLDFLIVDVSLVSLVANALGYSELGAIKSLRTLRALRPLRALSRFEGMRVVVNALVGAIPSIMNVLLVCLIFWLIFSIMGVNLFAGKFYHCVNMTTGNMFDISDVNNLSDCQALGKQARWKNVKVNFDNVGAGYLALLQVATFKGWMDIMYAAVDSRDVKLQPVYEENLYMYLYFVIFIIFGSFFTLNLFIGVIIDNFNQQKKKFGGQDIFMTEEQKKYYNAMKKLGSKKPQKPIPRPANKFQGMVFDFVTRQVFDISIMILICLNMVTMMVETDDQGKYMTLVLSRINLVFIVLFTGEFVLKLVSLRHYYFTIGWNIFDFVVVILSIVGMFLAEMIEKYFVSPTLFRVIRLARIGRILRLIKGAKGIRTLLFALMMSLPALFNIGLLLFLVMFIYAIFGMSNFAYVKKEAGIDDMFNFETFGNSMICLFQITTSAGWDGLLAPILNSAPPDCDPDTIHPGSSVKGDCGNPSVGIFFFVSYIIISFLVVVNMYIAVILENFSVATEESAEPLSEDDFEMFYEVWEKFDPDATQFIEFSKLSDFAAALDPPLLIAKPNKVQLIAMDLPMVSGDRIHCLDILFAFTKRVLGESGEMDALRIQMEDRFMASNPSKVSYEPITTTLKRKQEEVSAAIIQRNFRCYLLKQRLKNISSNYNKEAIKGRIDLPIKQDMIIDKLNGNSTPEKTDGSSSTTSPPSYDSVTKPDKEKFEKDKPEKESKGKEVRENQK
# procedureSummary: VIPR optical membrane potential assay, NaV1.3 inhibition
# Type: cell-based
# Set-up: expressed in transfected cells; host or cells: HEK293
# conditionLabel: activity against NaV 1.3 channel
pIC50: −log10 of the molar value.
recordedEndpoint: pIC50

Ask | Answer briefly: pIC50 recorded on UniProt Q9NY46 for O=C(c1cc(F)ccc1F)N1CCc2ccc(S(=O)(=O)Nc3nccs3)cc2C1 [Compound 74]
Reply | < 5.30

Ask | Answer briefly: pIC50 recorded on UniProt Q9NY46 for CC(C)(C)c1ccc(OCC(=O)N2CCCc3cc(S(=O)(=O)Nc4ncns4)ccc32)cc1 [Compound 139]
Reply | > 5.70

Ask | Answer briefly: pIC50 recorded on UniProt Q9NY46 for O=C(CN1CCc2ccc(Cl)cc2C1)N1CCc2cc(S(=O)(=O)Nc3nccs3)ccc21 [Compound 44]
Reply | > 5.70

Continuing:
Ask | Answer briefly: pIC50 recorded on UniProt Q9NY46 for Cc1cccc(OCC(=O)N2CCc3cc(S(=O)(=O)Nc4nccs4)ccc32)c1 [Compound 1]
Reply | > 5.70

----------
The entries below come with measured pIC50 values attached.
# targetSystem: UniProt:Q9NY46
# procedureSummary: VIPR optical membrane potential assay, NaV1.3 inhibition
# Type: cell-based
# Set-up: expressed in transfected cells; host or cells: HEK293
# conditionLabel: activity against NaV 1.3 channel
pIC50: −log10 of the molar value.

Ask | Give me measured pIC50, please, for this molecule: CC(C(=O)n1ccc2cc(S(=O)(=O)Nc3nccs3)ccc21)n1ccc2ccccc21 (stereo not shown)
Reply | < 5.30

Continuing:
Ask | Give me measured pIC50, please, for this molecule: `O=C(Cc1ccccc1)N1CCc2cc(S(=O)(=O)Nc3nccs3)ccc21`
Reply | > 5.70

Ask | Give me measured pIC50, please, for this molecule: `O=C(CCn1ccc2cc(Cl)ccc21)N1Cc2ccc(S(=O)(=O)Nc3ncns3)cc2C1`
Reply | > 5.70

Ask | Give me measured pIC50, please, for this molecule: `CC(C)(C)c1ccc(OCC(=O)N2CCc3ccc(S(=O)(=O)Nc4nccs4)cc3C2)cc1`
Reply | < 5.30

----------
# targetSystem: UniProt:Q9NY46
# procedureSummary: VIPR optical membrane potential assay, NaV1.3 inhibition
# Assay type: cell-based
# Set-up: expressed in transfected cells; host or cells: HEK293
# conditionLabel: activity against NaV 1.3 channel
pIC50: −log10 of the molar value.
recordedEndpoint: pIC50

Ask | Give me measured pIC50, please, for this compound: O=C(CCCOc1ccc(Cl)c(Cl)c1)N1Cc2ccc(S(=O)(=O)Nc3ncns3)cc2C1 [Compound 32]
Reply | > 5.70

Continuing:
Ask | Give me measured pIC50, please, for this compound: O=C(CNc1cc(F)ccc1F)N1CCc2cc(S(=O)(=O)Nc3nccs3)ccc21 [Compound 61]
Reply | > 5.70

Ask | Give me measured pIC50, please, for this compound: C[C@H](C(=O)N1Cc2ccc(S(=O)(=O)Nc3ncns3)cc2C1)n1ccc2c(F)cccc21 [Compound 94]
Reply | > 5.70

Ask | Give me measured pIC50, please, for this compound: O=C(COc1cccc(Cl)c1)N1CCc2cc(S(=O)(=O)Nc3nccs3)ccc21 [Compound 131]
Reply | > 5.70

Ask | Give me measured pIC50, please, for this compound: CC(C)(C)c1ccc(OCC(=O)N2CCCc3cc(S(=O)(=O)Nc4nccs4)ccc32)cc1 [Compound 206]
Reply | > 5.70

Ask | Give me measured pIC50, please, for this compound: O=C(COc1ccccc1)N1CCc2cc(S(=O)(=O)Nc3nccs3)ccc21 [Compound 112]
Reply | > 5.70

Ask | Give me measured pIC50, please, for this compound: O=C(CCCOc1ccc(Cl)cc1Cl)N1CCCc2cc(S(=O)(=O)Nc3nccs3)ccc21 [Compound 180]
Reply | > 5.70

Ask | Give me measured pIC50, please, for this compound: O=C(COc1ccc(Cl)cc1)N1CCc2cc(S(=O)(=O)Nc3ncns3)ccc21 [Compound 147]
Reply | > 5.70

Ask | Give me measured pIC50, please, for this compound: O=C(Cn1ccc2cccc(Cl)c21)N1CCc2ccc(S(=O)(=O)Nc3nccs3)cc2C1 [Compound 69]
Reply | < 5.30

Ask | Give me measured pIC50, please, for this compound: CC(Oc1cccc(Cl)c1)C(=O)N1Cc2ccc(S(=O)(=O)Nc3nccs3)cc2C1 (stereo not drawn) [Compound 62]
Reply | > 5.70

Ask | Give me measured pIC50, please, for this compound: O=C(COc1ccnc2c(C(F)(F)F)cccc12)N1CCc2cc(S(=O)(=O)Nc3nccs3)ccc21 [Compound 194]
Reply | > 5.70

Ask | Give me measured pIC50, please, for this compound: O=C(COc1cccc(Cl)c1)N1CCCc2cc(S(=O)(=O)Nc3nccs3)ccc21 [Compound 111]
Reply | > 5.70

Ask | Give me measured pIC50, please, for this compound: O=C(CNC1CCCCC1)N1CCc2cc(S(=O)(=O)Nc3nccs3)ccc21 [Compound 104]
Reply | < 5.30

Ask | Give me measured pIC50, please, for this compound: O=C(c1ccccc1F)N1CCc2ccc(S(=O)(=O)Nc3nccs3)cc2C1 [Compound 123]
Reply | 5.30 to 5.70

Ask | Give me measured pIC50, please, for this compound: Cc1ccc(C(=O)N2CCc3cc(S(=O)(=O)Nc4ncns4)ccc32)cc1Cl [Compound 179]
Reply | > 5.70

Ask | Give me measured pIC50, please, for this compound: O=C(CNCc1ccccc1)N1CCc2cc(S(=O)(=O)Nc3nccs3)ccc21 [Compound 24]
Reply | < 5.30

Ask | Give me measured pIC50, please, for this compound: Cc1ccc(C(=O)N2CCc3cc(S(=O)(=O)Nc4nccs4)ccc32)cc1 [Compound 47]
Reply | > 5.70

Ask | Give me measured pIC50, please, for this compound: O=C(COc1cccc(Cl)c1)N1CCCc2cc(S(=O)(=O)Nc3ncns3)ccc21 [Compound 53]
Reply | 5.30 to 5.70

Ask | Give me measured pIC50, please, for this compound: C[C@@H](C(=O)N1Cc2ccc(S(=O)(=O)Nc3ncns3)cc2C1)n1ccc2c(F)cccc21 [Compound 124]
Reply | > 5.70

Ask | Give me measured pIC50, please, for this compound: O=C(c1ccc(F)cc1)N1CCCc2cc(S(=O)(=O)Nc3nccs3)ccc21 [Compound 114]
Reply | < 5.30

Ask | Give me measured pIC50, please, for this compound: O=C(CN1CCCc2cc(Cl)ccc21)N1CCc2cc(S(=O)(=O)Nc3ncns3)ccc21 [Compound 205]
Reply | > 5.70

Ask | Give me measured pIC50, please, for this compound: O=C(COc1ccc(OC(F)(F)F)cc1)N1CCc2ccc(S(=O)(=O)Nc3nccs3)cc2C1 [Compound 52]
Reply | < 5.30

Ask | Give me measured pIC50, please, for this compound: Cc1ccc(OCC(=O)N2CCc3cc(S(=O)(=O)Nc4ncns4)ccc32)cc1C [Compound 97]
Reply | > 5.70
